# PROTOCOL SUMMARY: Cmax in rat at 0.25 mg/kg, iv and 3.0 mg/kg, po
# Assay type: ADME, organism-based
# CONDITIONS USED: in vivo
REPORTED METRIC: Cmax (nM)
Numbers only, in nM.

Return reported Cmax; argument: `CCN(CC)C(=O)c1ccc(C2=CC3(CCNCC3)Oc3cccc(O)c32)cc1`
117

###

# TARGET DESC: Kappa-type opioid receptor (Homo sapiens)
# Sequence (P41145 whole entry): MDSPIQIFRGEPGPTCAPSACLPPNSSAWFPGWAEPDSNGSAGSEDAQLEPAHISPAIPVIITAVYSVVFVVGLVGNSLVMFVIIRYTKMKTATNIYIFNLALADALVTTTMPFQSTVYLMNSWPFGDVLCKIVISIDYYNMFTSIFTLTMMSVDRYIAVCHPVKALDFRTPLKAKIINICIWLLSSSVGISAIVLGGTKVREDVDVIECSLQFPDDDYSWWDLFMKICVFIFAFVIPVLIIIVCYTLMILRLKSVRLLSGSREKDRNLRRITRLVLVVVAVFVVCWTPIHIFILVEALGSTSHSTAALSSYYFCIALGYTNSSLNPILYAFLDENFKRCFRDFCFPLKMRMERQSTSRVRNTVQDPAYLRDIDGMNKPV
# PROTOCOL SUMMARY: Displacement of [3H]diprenorphine from human kappa opioid receptor in CHO cells at 10 uM
# Format: cell-based
REPORTED METRIC: inhibition (%)
One number for each entry, in %.

A selection of reference data follows.
N#Cc1ccc(C2=CC3(CCNCC3)Oc3ccccc32)cc1
63
Oc1ccc(C2=CC3(CCNCC3)Oc3ccccc32)cc1
58
CCN1CCC2(C=C(c3ccc(C(=O)N(CC)CC)cc3)c3ccccc3O2)CC1
13
CCN(CC)C(=O)c1ccc(C2=CC3(CCNCC3)Oc3cccc(O)c32)cc1
37
CCN(CC)C(=O)c1ccc(C2=CC3(CCN(C)CC3)Oc3ccccc32)cc1
24

Report inhibition for every entry below.
1. O=C(O)c1ccc(C2=CC3(CCNCC3)Oc3ccccc32)cc1
2. CCN(CC)C(=O)c1ccc(C2=CC3(CCNCC3)Oc3c(O)cccc32)cc1
3. Cc1ccc(C2=CC3(CCNCC3)Oc3ccccc32)cc1
4. COc1ccc(C2=CC3(CCNCC3)Oc3ccccc32)cc1
5. C=CCN1C[C@H](C)N([C@H](c2ccc(C(=O)N(CC)CC)cc2)c2cccc(OC)c2)C[C@H]1C
6. CCN(CC)C(=O)c1ccc(C2=CC3(CCNCC3)Oc3cc(O)ccc32)cc1
7. CCN(CC)C(=O)c1ccc(C2=CC3(CCN(C(C)=O)CC3)Oc3ccccc32)cc1
8. CCN(CC)C(=O)c1cccc(C2=CC3(CCNCC3)Oc3ccccc32)c1

1. 14
2. 28
3. 57
4. 42
5. 28
6. 39
7. 2
8. 10

Consider the compound `CCN(CC)C(=O)c1ccccc1C1=CC2(CCNCC2)Oc2ccccc21` and give its measured inhibition.
45
